B1: ZNF24 (parent)
chain: YGETCFPKGRFERKRNPSRKKQHI

Variants of: B1
Test: protein stability index of a GFP-peptide fusion (GPS, HEK-293T) (PSI 1-6); higher = more stable;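 also: lentivirally expressed fusions sorted by FACS into six bins by GFP to DsRed ratio, PSI derived from sequencing read proportions per bin multiplied by bin number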
Conditions: c terminus: a fixed tail appended
Kind request: treat 3 as inclusive, so protein stability index at 3 or higher is Condition met, anything lower is Condition not met.

For orientation, consider the following solved cases.
K20E	Condition not met
F6V	Condition met
G9Q	Condition met

Now for a further variant.
Exercise: For this variant, is measured protein stability index 3 or higher? G2R
Key: Condition met

Cited source: the supplement of paper PMC10567573
